Reference for the values: BindingDB's records for doi:10.7270/Q2J101KZ

# Measurement target: M-phase inducer phosphatase 2 (Homo sapiens)
# Sequence (P30305 whole entry): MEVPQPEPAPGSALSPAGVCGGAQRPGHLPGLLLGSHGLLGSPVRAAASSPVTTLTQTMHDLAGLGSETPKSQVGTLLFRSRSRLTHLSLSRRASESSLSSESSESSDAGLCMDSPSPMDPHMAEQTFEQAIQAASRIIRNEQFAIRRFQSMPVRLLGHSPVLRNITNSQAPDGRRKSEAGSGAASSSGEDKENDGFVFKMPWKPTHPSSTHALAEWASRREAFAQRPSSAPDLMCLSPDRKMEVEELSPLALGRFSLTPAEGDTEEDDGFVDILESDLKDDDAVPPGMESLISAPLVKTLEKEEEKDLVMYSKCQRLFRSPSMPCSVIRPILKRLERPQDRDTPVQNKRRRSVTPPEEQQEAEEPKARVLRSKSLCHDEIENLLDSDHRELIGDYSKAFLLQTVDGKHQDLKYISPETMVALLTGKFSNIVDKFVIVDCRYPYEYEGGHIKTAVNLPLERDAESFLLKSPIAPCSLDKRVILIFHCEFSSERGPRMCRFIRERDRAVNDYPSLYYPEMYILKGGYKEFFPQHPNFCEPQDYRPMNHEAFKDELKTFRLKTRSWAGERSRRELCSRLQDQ
# Assay method text: inhibition of Cdc25B catalytic domain activity – biochemical, with glutathione, probe assessment, dose response (AID 671)
Measure: IC50 (µM)

Compound: Cn1ncnc2c(=O)n(C)c(=O)nc1-2
Quantity unit: µM
IC50: 35.5

Compound: COc1ccc(Br)cc1C=c1sc2nc(-c3ccco3)nn2c1=O
Quantity unit: µM
IC50: 2.13

Compound: O=C1C=Cc2ccccc2C1=O [1,2-dihydronaphthalene-1,2-dione]
Quantity unit: µM
IC50: 25

Compound: O=C(Nc1ccc2nc(-c3ccco3)c(-c3ccco3)nc2c1)N1CCCCCC1
Quantity unit: µM
IC50: 23.7

Compound: COc1cccc2c1NC(C(=O)O)C1CC=CC21 (stereo unspecified)
Quantity unit: µM
IC50: 8.23

Compound: O=C(O)C1Nc2c(O)cccc2C2C=CCC12 (stereo unspecified)
Quantity unit: µM
IC50: 6.76

[I] O=C(OC1CCCCC1)c1ccc2c(c1)C1C=CCC1C(C(=O)O)N2 (stereo unspecified)
[II] COc1cccc2c(C)c(C(=O)O)[nH]c12
[III] Cc1ccc2c(c1C)NC(C(=O)O)C1CC=CC21 (stereo unspecified)
[IV] N#Cc1c(N)sc(=S)c2c1CCN(Cc1ccccc1)C2
[V] c1ccc(CSc2nnc(-c3ccco3)c(-c3ccco3)n2)cc1
input: Please give the order of these compounds when sorted by IC50, largest value leading. Write out the labels following the order that was asked for.
output: IV, V, II, III, I
